- TESTED SYSTEM: T1, PKC-ε, purified isoform (UniProt Q02156 1-737)
- T1 construct: also called PKC-epsilon; epsilon
- T1 sequence (looked up): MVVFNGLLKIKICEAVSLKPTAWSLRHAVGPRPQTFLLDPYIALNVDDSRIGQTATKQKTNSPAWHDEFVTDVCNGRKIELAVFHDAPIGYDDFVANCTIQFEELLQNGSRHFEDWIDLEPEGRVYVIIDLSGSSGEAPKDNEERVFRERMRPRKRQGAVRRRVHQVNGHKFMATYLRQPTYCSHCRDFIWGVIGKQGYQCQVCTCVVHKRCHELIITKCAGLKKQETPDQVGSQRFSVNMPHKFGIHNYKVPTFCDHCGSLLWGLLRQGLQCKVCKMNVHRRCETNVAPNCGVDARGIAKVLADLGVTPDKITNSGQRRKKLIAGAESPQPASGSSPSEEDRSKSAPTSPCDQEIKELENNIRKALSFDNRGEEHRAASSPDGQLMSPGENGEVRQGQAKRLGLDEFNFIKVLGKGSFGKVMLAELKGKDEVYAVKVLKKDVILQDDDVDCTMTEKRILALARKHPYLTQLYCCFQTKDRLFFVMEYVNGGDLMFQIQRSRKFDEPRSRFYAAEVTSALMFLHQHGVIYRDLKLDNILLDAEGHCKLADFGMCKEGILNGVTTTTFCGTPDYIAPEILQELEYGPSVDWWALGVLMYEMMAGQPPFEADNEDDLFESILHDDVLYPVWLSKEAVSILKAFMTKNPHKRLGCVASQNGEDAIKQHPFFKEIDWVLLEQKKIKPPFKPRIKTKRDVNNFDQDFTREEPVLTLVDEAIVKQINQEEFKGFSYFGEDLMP
- EXPERIMENT SUMMARY: competition ELISA on coated purified PKC-ε vs anti-PKC ε antibody; PRE 200 µM
READOUT: relative binding capacity

Exercise: Using the record for Ac-KDAQNLI-NH2 (Ac-KDAQNLI-NH2; also called peptide recognition element 12) [PRE 12] , report its relative binding capacity.
Key: 0%

Exercise: Next binder: Ac-AKGIQEVKGGDAQNLIGISI-NH2 (also called peptide recognition element 3) [PRE 3]
Key: 31%

Exercise: Next binder: Ac-RDAQNLIGISI-NH2 (also called peptide recognition element 11) [PRE 11]
Key: 9.84%

Exercise: Next binder: Ac-RDAQNLI-NH2 (Ac-RDAQNLI-NH2; also called peptide recognition element 13) [PRE 13]
Key: 0.85%

Then there is this binder:
Exercise: Using the record for Ac-ISIGILQNADK-NH2 (also called peptide recognition element 7) [PRE 7] , report its relative binding capacity.
Key: 3.78%
